Values from the supplement of paper PMC10065799

# target: c-Src SH2;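 note: peptide library displayed on the E. coli surface as eCPX fusions, selected cells deep-sequenced, score is each peptide's frequency after selection divided by its frequency in the input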
# assayComment: SH2 binding enrichment of the phosphorylated peptide, bacterial display (enrichment ratio); higher = better substrate or ligand; peptides without Tyr show the background
Decide using SH2 binding enrichment: a value greater than or equal to 0.6 is 1 (yes), a smaller one is 0 (no).

Query :: In plain terms: is recorded SH2 binding enrichment at least 0.6 for TQIGQYGNGLK [MORC2_Y100] ?
Result :: 0 (no)

Query :: Say whether GGQDVYGDFGG [Probound] shows SH2 binding enrichment of 0.6 or more.
Result :: 0 (no)

Query :: Is the recorded value of SH2 binding enrichment equal to or greater than 0.6 for this sequence? WPLKWYAPECI [ZAP70_Y506]
Result :: 0 (no)

Query :: Record LVSCTYQLARR [FGFR2_Y608_G613R] ; criterion: SH2 binding enrichment no lower than 0.6. Met?
Result :: 0 (no)

Query :: Confirm if SH2 binding enrichment reported for the sequence FADTAYNYRHG [PAH_Y166_I164T] is 0.6 or above.
Result :: 0 (no)

Query :: Does PARLEYFENEK [IRS1_Y46_YF] have a reported SH2 binding enrichment of at least 0.6?
Result :: 1 (yes)

Query :: Threshold query (SH2 binding enrichment >= 0.6) on RFLRGYEQDAY [HLA-A_Y137_R138E]
Result :: 1 (yes)

Query :: Reported SH2 binding enrichment at or above 0.6? IRCQGYSHRIL [MYO3B_Y993_R990C]
Result :: 1 (yes)

Query :: Quick check, SH2 binding enrichment >= 0.6? LLSVAYKNVVR [YWHAZ_Y48_G53R]
Result :: 0 (no)

Query :: Hello, I need to know if LNPLIYSLRNK [OR5R1_Y290] has measured SH2 binding enrichment not below 0.6. Thanks!
Result :: 1 (yes)

Query :: Please tell me: is the sequence DAASNYARGHY [TUBA3E_Y103] at or over 0.6 in terms of SH2 binding enrichment?
Result :: 0 (no)

Query :: Textbook exercise: given the entry SPRDTYSDRIG [CTPS1_Y567_S571I] , state whether its SH2 binding enrichment is greater than or equal to 0.6.
Result :: 0 (no)

====

# target: Fyn (UniProt P06241)
# Sequence (P06241 whole entry, looked up): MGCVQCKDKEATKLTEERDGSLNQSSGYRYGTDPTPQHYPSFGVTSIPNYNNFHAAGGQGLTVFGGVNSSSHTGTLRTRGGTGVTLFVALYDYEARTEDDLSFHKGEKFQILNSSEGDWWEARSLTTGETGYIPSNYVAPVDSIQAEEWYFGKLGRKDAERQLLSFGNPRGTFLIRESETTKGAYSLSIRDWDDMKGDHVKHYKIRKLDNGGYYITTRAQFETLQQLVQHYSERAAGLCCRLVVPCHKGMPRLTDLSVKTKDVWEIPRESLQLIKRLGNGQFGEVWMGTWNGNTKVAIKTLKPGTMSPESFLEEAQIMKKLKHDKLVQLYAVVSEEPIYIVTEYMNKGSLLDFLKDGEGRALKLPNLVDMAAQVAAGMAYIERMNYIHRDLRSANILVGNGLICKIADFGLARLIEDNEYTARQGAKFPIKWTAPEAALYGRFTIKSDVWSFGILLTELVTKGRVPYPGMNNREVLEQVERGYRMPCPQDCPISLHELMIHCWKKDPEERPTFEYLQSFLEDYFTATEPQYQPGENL
# assayComment: phosphorylation enrichment, bacterial display (enrichment ratio); higher = better substrate or ligand; peptides without Tyr show the background
Would you mind sorting the entries by phosphorylation enrichment according to these classes? low: < 0.5; medium: ≥ 0.5 and < 0.7; high: ≥ 0.7

A selection of reference data follows.
{"primarySequence": "SHMVDYQPYRK [TEX37_Y25]", "assignedClass": "medium"}
{"primarySequence": "KLKRSYCSPDI [USP8_Y717_S718C]", "assignedClass": "low"}
{"primarySequence": "ADLTEYLSTHY [UQCRC1_Y219]", "assignedClass": "medium"}
{"primarySequence": "GSPPPYRRRKR [MBD1_Y403]", "assignedClass": "medium"}
{"primarySequence": "SESSFYKSLNL [NGEF_Y289_A286S_YF]", "assignedClass": "low"}
{"primarySequence": "TSYSGYRYHRH [NKAPL_Y94]", "assignedClass": "high"}
{"primarySequence": "TGSFTCEAVEL [MTMR14_Y462_Y462C]", "assignedClass": "medium"}
{"primarySequence": "FPAVGYHKPHI [IDS_Y225_L221P]", "assignedClass": "low"}
{"primarySequence": "QGGRRYMMIVD [GAA_Y438]", "assignedClass": "medium"}
{"primarySequence": "AVRYIYTIDGS [DCX_Y105_G100A]", "assignedClass": "high"}

Query :: Record YMRGMYFRMKD [PLA2G6_Y541] — which class?
Result :: low
